B1: KCNA3 (parent)
chain: GERVVINISGLRFETQLKTLCQFP

Variants of: B1
method: protein stability index of a GFP-peptide fusion (GPS, HEK-293T) (PSI 1-6); higher = more stable;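 note: lentivirally expressed fusions sorted by FACS into six bins by GFP to DsRed ratio, PSI derived from sequencing read proportions per bin multiplied by bin number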
assay.conditions: c terminus: a fixed tail appended
Values of protein stability index greater than or equal to 2 map to Yes; values below map to No.

Reported protein stability index at or above 2? `GERVVINISGLRFETMLKTLCQFP` Yes

Reported protein stability index at or above 2? `KERVVINISGLRFETQLKTLCQFP` Yes

Reported protein stability index at or above 2? `GERVVINSSGLRFETQLKTLCQFP` No

Reported protein stability index at or above 2? `GERVVINPSGLRFETQLKTLCQFP` Yes

Reported protein stability index at or above 2? `GERAVINISGLRFETQLKTLCQFP` No

Reported protein stability index at or above 2? `GERVVINISGLRFETDLKTLCQFP` No

Reported protein stability index at or above 2? `GERVVINGSGLRFETQLKTLCQFP` Yes

Reported protein stability index at or above 2? `GERVVINISGQRFETQLKTLCQFP` No

Reported protein stability index at or above 2? `GERVVINISGLRFETQKKTLCQFP` No

Reported protein stability index at or above 2? `GQRVVINISGLRFETQLKTLCQFP` Yes

Reported protein stability index at or above 2? `GERMVINISGLRFETQLKTLCQFP` Yes

Reported protein stability index at or above 2? `GERVVINISGLRLETQLKTLCQFP` No

Reported protein stability index at or above 2? `GERVVINISGLRCETQLKTLCQFP` Yes

Reported protein stability index at or above 2? `GERVVINIQGLRFETQLKTLCQFP` Yes

Reported protein stability index at or above 2? `GERVVINISGLCFETQLKTLCQFP` Yes

Reported protein stability index at or above 2? `GERVVINISGIRFETQLKTLCQFP` Yes

Reported protein stability index at or above 2? `GERVVYNISGLRFETQLKTLCQFP` No

Reported protein stability index at or above 2? `GERPVINISGLRFETQLKTLCQFP` Yes

Reported protein stability index at or above 2? `GPRVVINISGLRFETQLKTLCQFP` Yes

Reported protein stability index at or above 2? `GERVVINISGGRFETQLKTLCQFP` Yes

Reported protein stability index at or above 2? `GERVVINISGLRFETQEKTLCQFP` No

Reported protein stability index at or above 2? `GERVVINISGLRFETQPKTLCQFP` Yes

Reported protein stability index at or above 2? `GERVVINISDLRFETQLKTLCQFP` No

Reported protein stability index at or above 2? `GERVVINISGHRFETQLKTLCQFP` No

Reported protein stability index at or above 2? `GERVVINISGLRFETQLKFLCQFP` No

Reported protein stability index at or above 2? `GERVVINISILRFETQLKTLCQFP` No

Reported protein stability index at or above 2? `GERYVINISGLRFETQLKTLCQFP` Yes

Reported protein stability index at or above 2? `GERVVQNISGLRFETQLKTLCQFP` Yes

Reported protein stability index at or above 2? `GERVVINISGLDFETQLKTLCQFP` No

Reported protein stability index at or above 2? `GERVVINISGLRFQTQLKTLCQFP` No

Reported protein stability index at or above 2? `GERVVINISGLRVETQLKTLCQFP` Yes

Reported protein stability index at or above 2? `GERVVINRSGLRFETQLKTLCQFP` No

Reported protein stability index at or above 2? `GERVVINISGLRFETQLETLCQFP` Yes

Reported protein stability index at or above 2? `GERVVINTSGLRFETQLKTLCQFP` Yes

Reported protein stability index at or above 2? `GESVVINISGLRFETQLKTLCQFP` Yes

Reported protein stability index at or above 2? `GERVVINISGLRFETQLKTLRQFP` Yes

Reported protein stability index at or above 2? `GERVVINIDGLRFETQLKTLCQFP` No

Reported protein stability index at or above 2? `GERVVINQSGLRFETQLKTLCQFP` Yes

Reported protein stability index at or above 2? `GERVVINISNLRFETQLKTLCQFP` Yes

Reported protein stability index at or above 2? `GERVVINISGLRFETQLKTLCQFW` No

Reported protein stability index at or above 2? `GECVVINISGLRFETQLKTLCQFP` Yes

Reported protein stability index at or above 2? `GERVVINISGWRFETQLKTLCQFP` Yes

Reported protein stability index at or above 2? `GERVVINISGVRFETQLKTLCQFP` Yes

Reported protein stability index at or above 2? `GERVVINISGLRFEGQLKTLCQFP` Yes

Reported protein stability index at or above 2? `GNRVVINISGLRFETQLKTLCQFP` Yes

Reported protein stability index at or above 2? `GERVVINISGLRMETQLKTLCQFP` Yes

Reported protein stability index at or above 2? `GERVVINISGLRFETQLQTLCQFP` No

Reported protein stability index at or above 2? `GERVVINISGLRFETQLKTLVQFP` No

Reported protein stability index at or above 2? `GERVVINISELRFETQLKTLCQFP` Yes

Reported protein stability index at or above 2? `GERVVINISGLRFETQLKTLCTFP` Yes

Reported protein stability index at or above 2? `GERVVINISGLRFETQLKALCQFP` No

Reported protein stability index at or above 2? `GERVVIPISGLRFETQLKTLCQFP` No

Reported protein stability index at or above 2? `GERVVINISGLRFETQLKTLCQRP` No

Reported protein stability index at or above 2? `GERVVRNISGLRFETQLKTLCQFP` Yes

Reported protein stability index at or above 2? `CERVVINISGLRFETQLKTLCQFP` Yes

Reported protein stability index at or above 2? `GERVVINISGLRFETQLKTICQFP` No

Reported protein stability index at or above 2? `GERVVINISGLRDETQLKTLCQFP` No

Reported protein stability index at or above 2? `GERVVINISGLRFETQLKTDCQFP` No

Reported protein stability index at or above 2? `GERVVINISGLRFEEQLKTLCQFP` Yes

Reported protein stability index at or above 2? `GTRVVINISGLRFETQLKTLCQFP` Yes

Reported protein stability index at or above 2? `GERVVINISGLKFETQLKTLCQFP` Yes

Reported protein stability index at or above 2? `GERVVINISGLRFETQLKTLCQDP` Yes

Reported protein stability index at or above 2? `GERVVINISGTRFETQLKTLCQFP` No

Reported protein stability index at or above 2? `TERVVINISGLRFETQLKTLCQFP` Yes

Reported protein stability index at or above 2? `GERVRINISGLRFETQLKTLCQFP` Yes

Reported protein stability index at or above 2? `GERVVMNISGLRFETQLKTLCQFP` No

Reported protein stability index at or above 2? `GERVVINISGLRFETQLDTLCQFP` Yes

Reported protein stability index at or above 2? `GEREVINISGLRFETQLKTLCQFP` No

Reported protein stability index at or above 2? `GERVVINISGLRFETQLKTLCQFK` No

Reported protein stability index at or above 2? `GMRVVINISGLRFETQLKTLCQFP` Yes

Reported protein stability index at or above 2? `GERVVINISGLRFETHLKTLCQFP` Yes

Reported protein stability index at or above 2? `GERVVINISGLRFETQLKTACQFP` Yes

Reported protein stability index at or above 2? `GERVVINISGLRIETQLKTLCQFP` Yes

Reported protein stability index at or above 2? `GERVVGNISGLRFETQLKTLCQFP` No

Reported protein stability index at or above 2? `SERVVINISGLRFETQLKTLCQFP` Yes

Reported protein stability index at or above 2? `GERVVINISGLRFETQDKTLCQFP` Yes

Reported protein stability index at or above 2? `GERVVINISGLRFETQLKTLDQFP` Yes

Reported protein stability index at or above 2? `GERVVINMSGLRFETQLKTLCQFP` No

Reported protein stability index at or above 2? `GERVVINISGLRFETNLKTLCQFP` No

Reported protein stability index at or above 2? `GEHVVINISGLRFETQLKTLCQFP` No

Reported protein stability index at or above 2? `GHRVVINISGLRFETQLKTLCQFP` No

Reported protein stability index at or above 2? `GERVTINISGLRFETQLKTLCQFP` Yes

Reported protein stability index at or above 2? `GERVVINISGLRFETQLKTLCMFP` Yes

Reported protein stability index at or above 2? `GERVVINISGLRFETQLKTLQQFP` Yes

Reported protein stability index at or above 2? `GERVVINISGLRFETQLKNLCQFP` No

Reported protein stability index at or above 2? `GERVVINNSGLRFETQLKTLCQFP` Yes
